Parameter Pre-emerge Herbicidal Activity RICE (crop damage rating): see the listing below.
Test system: upland rice (Ory0a sp., var.Tebonnet, RICE)
Assay: Pre-emerge greenhouse crop damage test
Type: in vivo
Conditions: in vivo
Measured quantity: Pre-emerge Herbicidal Activity RICE (crop damage rating)

INSERT INTO assay_data (molecule, test_system, experimental_value) VALUES
  ('Nn1c(C(F)(F)F)cc(=O)n(-c2c(F)cc(Cl)c3c2NC(=O)CO3)c1=O', 'upland rice (Ory0a sp., var.Tebonnet, RICE)', 90),
  ('CCOC(=O)c1nc2c(-n3c(=O)cc(C(F)(F)F)n(C)c3=O)c(F)cc(Cl)c2oc1=O', 'upland rice (Ory0a sp., var.Tebonnet, RICE)', 0),
  ('Cc1nc2c(-n3ncc(C(F)(F)F)cc3=O)c(F)cc(Cl)c2o1', 'upland rice (Ory0a sp., var.Tebonnet, RICE)', 90),
  ('CC1Oc2c(Cl)cc(F)c(-c3nn(C)c(OC(F)F)c3Cl)c2NC1=O (centres unmarked)', 'upland rice (Ory0a sp., var.Tebonnet, RICE)', 40),
  ('Cn1c(C(F)(F)F)cc(=O)n(-c2c(F)cc(Cl)c3c2NC(=O)CO3)c1=O', 'upland rice (Ory0a sp., var.Tebonnet, RICE)', 90);

---

Parameter Pre-emerge Herbicidal Activity RICE (crop damage rating): see the listing below.
Test system: upland rice (Ory0a sp., var.Tebonnet, RICE)
Assay: Pre-emerge greenhouse crop damage test
Type: in vivo
Conditions: var. Tebonnet, upland rice (Ory0a sp.), in vivo, 14 days
Measured quantity: Pre-emerge Herbicidal Activity RICE (crop damage rating)

INSERT INTO results (molecule, experimental_value) VALUES
  ('COC(=O)CC1CNc2c(c(Cl)cc(F)c2-n2c(=O)cc(C(F)(F)F)n(C)c2=O)O1 (stereo not drawn) [Compound 2-8]', 50),
  ('Cn1c(C(F)(F)F)cc(=O)n(-c2ccc(Cl)c3ccccc23)c1=O [Compound 5-1]', 70),
  ('Cn1c(C(F)(F)F)cc(=O)n(-c2c(F)cc(Cl)c3c2NCCO3)c1=O [Compound 2-1]', 70);

---

Parameter Pre-emerge Herbicidal Activity CASOB (phytotoxicity rating): see the listing below.
Test system: sicklepod (Cassia obtusifolia, CASOB)
Assay: Pre-emerge greenhouse herbicide test
Format: in vivo
Conditions: 250 g ai/ha, 14 days after application, scale 0-100 (0 no damage, 100 complete death)
Measured quantity: Pre-emerge Herbicidal Activity CASOB (phytotoxicity rating)

INSERT INTO measurements (molecule, test_system, experimental_value) VALUES
  ('Cc1nc2c(-n3ncc(C(F)(F)F)cc3=O)c(F)cc(Cl)c2o1', 'sicklepod (Cassia obtusifolia, CASOB)', 90),
  ('Cn1c(C(F)(F)F)cc(=O)n(-c2c(F)cc(Cl)c3c2NC(=O)CO3)c1=O', 'sicklepod (Cassia obtusifolia, CASOB)', 100),
  ('CCOC(=O)c1nc2c(-n3c(=O)cc(C(F)(F)F)n(C)c3=O)c(F)cc(Cl)c2oc1=O', 'sicklepod (Cassia obtusifolia, CASOB)', 0),
  ('CC1Oc2c(Cl)cc(F)c(-c3nn(C)c(OC(F)F)c3Cl)c2NC1=O (stereo not shown)', 'sicklepod (Cassia obtusifolia, CASOB)', 95);

---

System: field corn (Zea mays L., var. Dekalb 527, CORN)
Assay: Pre-emerge greenhouse crop damage test
Type: in vivo
Settings: var. Dekalb 527, field corn (Zea mays L.), in vivo, 14 days
Measured quantity: Pre-emerge Herbicidal Activity CORN (crop damage rating)

INSERT INTO assay_data (compound, experimental_value) VALUES
  ('Cn1c(C(F)(F)F)cc(=O)n(-c2c(F)cc(Cl)c3c2N=C(c2ccccc2)CO3)c1=O', 0),
  ('Cn1c(C(F)(F)F)cc(=O)n(-c2c(F)cc(Cl)c3c2NCCO3)c1=O', 20),
  ('Cc1nc2c(-n3c(=O)cc(C(F)(F)F)n(C)c3=O)c(F)cc(Cl)c2oc1=O', 0),
  ('CC1Oc2c(Cl)cc(F)c(-n3c(=O)cc(C(F)(F)F)n(C)c3=O)c2NC1=O (stereo not shown)', 99),
  ('COC(=O)CC1CNc2c(c(Cl)cc(F)c2-n2c(=O)cc(C(F)(F)F)n(C)c2=O)O1 (stereo not shown)', 70),
  ('CCc1nc2c(-n3c(=O)n4n(c3=S)CCC=C4)c(F)cc(Cl)c2o1', 50),
  ('Cn1c(C(F)(F)F)cc(=O)n(-c2ccc(Cl)c3ccccc23)c1=O', 70);
